Origin of values: ChEMBL document CHEMBL1128746

Study target: Cannabinoid receptor 1 (Rattus norvegicus)
Sequence (P20272 whole entry): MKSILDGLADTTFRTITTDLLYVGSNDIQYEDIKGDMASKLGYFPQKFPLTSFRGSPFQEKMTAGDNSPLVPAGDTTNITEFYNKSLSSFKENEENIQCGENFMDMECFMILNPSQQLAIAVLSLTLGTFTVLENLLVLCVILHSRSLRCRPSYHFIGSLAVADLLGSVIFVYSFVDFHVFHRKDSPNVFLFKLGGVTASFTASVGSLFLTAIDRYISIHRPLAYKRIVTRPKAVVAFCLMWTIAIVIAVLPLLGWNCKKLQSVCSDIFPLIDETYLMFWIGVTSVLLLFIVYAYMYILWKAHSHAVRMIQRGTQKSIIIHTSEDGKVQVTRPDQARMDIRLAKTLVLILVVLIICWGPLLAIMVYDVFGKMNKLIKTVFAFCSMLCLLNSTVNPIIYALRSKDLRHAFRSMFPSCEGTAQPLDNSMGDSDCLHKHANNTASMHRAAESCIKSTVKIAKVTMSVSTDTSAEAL
Experimental details: […] [3H]WIN-55212 binding to Cannabinoid receptor 1 in rat cerebellum membranes.

| Compound | IC50 / µM |
| --- | --- |
| O=C(c1cccc2ccccc12)c1cn(CCN2CCOCC2)c2ccc(O)cc12 | 0.07 |
| CC(CN1CCOCC1)n1cc(C(=O)c2cccc3ccccc23)c2ccccc21 (racemic; form 1) | 0.114 |
| CC(Cn1cc(C(=O)c2cccc3ccccc23)c2ccccc21)N1CCOCC1 (stereo unspecified) | 0.124 |
| COc1ccc(C(=O)c2c(C)n(CCN3CCOCC3)c3cc(C)ccc23)cc1 | 1.88 |
| Cc1cccc(C(=O)c2c(C)n(CCN3CCOCC3)c3ccccc23)c1C | 0.373 |
| Cc1c(C(=O)c2cc3ccccc3o2)c2ccccc2n1CCN1CCOCC1 | 0.416 |
| O=C(c1cccc2ccccc12)c1cn(CCN2CCOCC2)c2ccccc12 | 0.0078 |
| O=C(c1ccc2occc2c1)c1cn(CCN2CCOCC2)c2ccccc12 | 0.138 |
| Cc1c(C(=O)c2cccc3ccccc23)c2ccccc2n1C(C)CN1CCOCC1 (racemic; form 2) | 0.013 |
| CC(CN1CCOCC1)n1cc(C(=O)c2cccc3ccccc23)c2ccccc21 (stereo in doubt; -106) | 0.033 |
| O=C(c1ccc2ncccc2c1)c1cn(CCN2CCOCC2)c2ccccc12 | 0.491 |
| Cc1ccc(C(=O)c2c(C)n(CCN3CCOCC3)c3ccccc23)c2ccccc12 | 0.0059 |
| Cc1ccc(C(=O)c2c(C)n(CCN3CCOCC3)c3ccccc23)cc1C | 0.14 |
| Cc1c(C(=O)c2ccc(C#N)c3ccccc23)c2ccccc2n1CCN1CCOCC1 | 0.015 |
| O=C(c1ccc2ccccc2c1)c1cn(CCN2CCOCC2)c2ccccc12 | 0.059 |
| Cc1c(C(=O)c2cccc3ccccc23)c2ccccc2n1CCN1CCCCC1 | 0.037 |
| Cc1c(C(=O)c2ccc3occc3c2)c2ccccc2n1CCN1CCOCC1 | 0.357 |
| COc1ccc(C(=O)c2c(C)n(CCN3CCOCC3)c3cc(OC)ccc23)cc1 | 1.45 |
| COc1ccc(C(=O)c2cn(CCN3CCOCC3)c3ccccc23)c2ccccc12 | 0.0014 |
| Cc1c(C(=O)c2cccc3ccccc23)c2ccccc2n1CCCN1CCOCC1 | 0.15 |
| Cc1c(C(=O)c2ccnc3ccccc23)c2ccccc2n1CCN1CCOCC1 | 0.283 |

====

Study target: UniProtKB P20272
Experimental details: […] [3H]WIN-55212 binding to Cannabinoid receptor 1 in rat cerebellum membranes.
Assay type: cell membranes
Condition set: Membrane, concentration not given here
Label True for high-side inhibition (at or above 20%) and False for low-side inhibition (below it).

| Molecule | Label value |
| --- | --- |
| COc1ccc(C(=O)c2c(C)n(CCN3CCCCC3)c3ccccc23)cc1 | True |
| COc1ccc(C(=O)c2c(C)n(CCN3CCOCC3)c3cccc(C)c23)cc1 | True |
| Cc1c(C(=O)c2cc3ccccc3c3ccccc23)c2ccccc2n1CCN1CCOCC1 | True |
| O=C(c1ccc(Br)c2ccccc12)c1cn(CCN2CCOCC2)c2ccccc12 | True |
| Cc1[nH]c2ccccc2c1C(=O)c1cccc2ccccc12 | False |
| COc1ccc(C(=O)c2c(C)n(CCCN3CCOCC3)c3ccccc23)cc1 | False |
| Cc1cc(C)cc(C(=O)c2c(C)n(CCN3CCOCC3)c3ccccc23)c1 | True |
| O=C(c1cccc2c1CCCC2)c1cn(CCN2CCOCC2)c2ccccc12 | True |
| Cc1c(C(=O)c2ccccc2Cl)c2ccccc2n1CCN1CCOCC1 | True |
| COc1ccc(C(=O)c2c(C)n(CCO)c3ccccc23)cc1 | False |
| N#Cc1ccc(C(=O)c2cn(CCN3CCOCC3)c3ccccc23)c2ccccc12 | True |
| COc1ccc(C(=O)c2c(O)n(CCN3CCOCC3)c3ccccc23)cc1 | False |
| Cc1c(C(=O)c2cccc(C#N)c2)c2ccccc2n1CCN1CCOCC1 | False |
| COc1ccc(C(=O)c2c(C)n(CCN3CCOCC3)c3ccc(F)cc23)cc1 | False |
| Cc1c(C(=O)c2ccc(O)cc2)c2ccccc2n1CCN1CCOCC1 | False |
| Cc1c(C(=O)c2cccc3ccccc23)c2ccccc2n1C(C)CN1CCOCC1 (racemic; form 1) | True |
| Cc1c(C(=O)c2ccc(-c3ccccc3)cc2)c2ccccc2n1CCN1CCOCC1 | False |
